- System: BT-549 breast
- EXPERIMENT_DESCRIPTION: NCI-60 one-dose screen, 48 h (100 = growth as untreated, 0 = no growth, -100 = all killed)
- PARTICULARS: 10 µM unless noted
This is part of a sample that, as a whole, favours compounds with a hit. Of some 83,000 tested, about 20% had one in any assay.

>  <RECORD_SMILES>
O=S(=O)(Nc1cc(F)cc(Cl)c1)c1ccc(-c2cnc(C3CC3)o2)cc1

>  <RESULT_UNITS>
%

>  <growth>
40.6

$$$$
>  <RECORD_SMILES>
COC(=O)c1c(C)c2n(c1C)C(=O)C(c1ccccc1)=C2

>  <RESULT_UNITS>
%

>  <growth>
51.2

$$$$
>  <RECORD_SMILES>
Cc1[nH]c(=O)[nH]c(=O)c1Br

>  <RESULT_UNITS>
%

>  <growth>
108

$$$$
>  <RECORD_SMILES>
COc1ccc2c(c1)CC[C@H](O)/C2=C/c1cc(OC)c(OC)c(OC)c1

>  <RESULT_UNITS>
%

>  <growth>
4.02

$$$$
>  <RECORD_SMILES>
Cn1cc(-c2ccc3nc(-c4ccc(CC(=O)ONc5cc(C(C)(C)C)on5)cc4)cnc3c2)cn1

>  <RESULT_UNITS>
%

>  <growth>
29.6

$$$$
